Test system: C. glabrata NCPF 8018
Test: microbe, parasite or virus in culture
Assay type: cell-based
Conditions: C. glabrata NCPF 8018; shown in µM
Description: […] The 46 peptides were serially diluted (128 to 2 μg/mL) in media down polypropylene 96-well plates. […] Plates were incubated at 37 °C for 20 h, and the optical density was determined spectrophotometrically at 600 nm. Minimum inhibition concentrations (MICs) were determined from a minimum of three biological repeats and are reported in μg/mL as well as μM. […]
Where a SMILES comes first, the peptide text is derived from it.
measuredProperty: Modal MIC90 (µM)
One number for each entry, in µM.

Lab note: measured Modal MIC90 of CC[C@H](C)[C@H](NC(=O)[C@H](C)NC(=O)[C@H](CCCCN)NC(=O)[C@@H]1CCCN1C(=O)[C@@H](NC(=O)[C@H](CC(C)C)NC(=O)[C@H](CCCCN)NC(=O)[C@H](Cc1ccccc1)NC(=O)[C@H](CC(C)C)NC(=O)[C@@H](N)Cc1ccccc1)[C@@H](C)CC)C(=O)N[C@@H](CCCCN)C(=O)N[C@@H](CCCCN)C(=O)N[C@@H](CC(C)C)C(=O)N[C@H](C(=O)N[C@@H](CO)C(=O)N[C@@H](CCCCN)C(=O)N[C@@H](Cc1ccccc1)C(=O)N[C@@H](CCCCN)C(N)=O)[C@@H](C)CC [AamAP1-Lysa] (H-FLFKLIPKAIKKLISKFK-NH2) was 57.8

* * *

Exercise: state measured Modal MIC90 for each of the compounds provided.
system: C. krusei NCPF 3876; test: microbe, parasite or virus in culture; assay type: cell-based; conditions: NCPF 3876, 20 h
Where a SMILES comes first, the peptide text is derived from it.
One number for each entry, in µM.

- CC(C)[C@H](NC(=O)CNC(=O)[C@H](CCCNC(=N)N)NC(=O)[C@@H](N)CCCNC(=N)N)C(=O)N[C@@H](CS)C(=O)N[C@@H](CCCNC(=N)N)C(=O)N[C@@H](CS)C(=O)N[C@H](C(=O)N[C@@H](CS)C(=O)N[C@@H](CCCNC(=N)N)C(=O)N[C@@H](CCCNC(=N)N)C(N)=O)C(C)C [BTD11a] (H-RRGVCRCVCRR-NH2; N-terminus assumed): 23.5

Lab note: measured Modal MIC90 of CC(C)[C@H](NC(=O)CNC(=O)[C@H](CCCNC(=N)N)NC(=O)[C@H](CCCNC(=N)N)NC(=O)[C@H](CS)NC(=O)[C@@H](NC(=O)[C@H](CS)NC(=O)[C@@H](N)CCCNC(=N)N)C(C)C)C(=O)N[C@@H](CS)C(=O)N[C@@H](CCCNC(=N)N)C(=O)N[C@@H](CS)C(=O)N[C@H](C(=O)N[C@@H](CS)C(=O)N[C@@H](CCCNC(=N)N)C(=O)N[C@@H](CCCNC(=N)N)C(N)=O)C(C)C [BTD15a] (H-RCVCRRGVCRCVCRR-NH2; N-terminus assumed) was 8.8

* * *

tested on: C. parapsilosis NCPF 3209; assay: microbe, parasite or virus in culture; type: cell-based; settings: C. parapsilosis NCPF 3209; 50% growth inhibition; RPMI 1640 + 2% glucose, 37 °C, 20 h
Where a SMILES comes first, the peptide text is derived from it.
measuredProperty: Modal MIC50

Lab note: measured Modal MIC50 of CC(C)C[C@H](NC(=O)[C@H](CCCCN)NC(=O)[C@H](CO)NC(=O)[C@H](CCCCN)NC(=O)[C@H](Cc1c[nH]c2ccccc12)NC(=O)[C@H](C)NC(=O)[C@H](CCCCN)NC(=O)[C@@H](N)CCCCN)C(=O)N[C@@H](C)C(=O)N[C@@H](CCCCN)C(=O)N[C@@H](CCCCN)C(=O)N[C@@H](CC(C)C)C(=O)N[C@@H](CCCNC(=N)N)C(=O)N[C@@H](C)C(=O)N[C@@H](CCCCN)C(=O)NCC(=O)N[C@@H](CCCCN)C(N)=O [PS-PB-14a] (H-KKAWKSKLAKKLRAKGK-NH2) was > 128 µg/mL

* * *

Exercise: state measured Modal MIC for each of the compounds provided.
test system: S. aureus (MRSA) NCTC 13616; test: microbe, parasite or virus in culture; assay type: cell-based, Staphylococcus aureus; settings: S. aureus (MRSA) NCTC 13616 (R); shown in µM
Where a SMILES comes first, the peptide text is derived from it.

- CC[C@H](C)[C@H](NC(=O)[C@H](CCCCN)NC(=O)[C@H](CCC(=O)O)NC(=O)[C@H](Cc1c[nH]c2ccccc12)NC(=O)[C@H](Cc1ccccc1)NC(=O)[C@H](CCCCN)NC(=O)CNC(=O)[C@H](CC(C)C)NC(=O)[C@H](C)N)C(=O)N[C@@H](CCCCN)C(=O)N[C@@H](CO)C(=O)N[C@@H](CC(C)C)C(=O)N[C@@H](Cc1ccccc1)C(N)=O [A1F5K8-IsCTa] (H-ALGKFWEKIKSLF-NH2): 10 µM
- CC(C)C[C@H](NC(=O)[C@H](CCCCN)NC(=O)[C@H](CO)NC(=O)[C@H](CCCCN)NC(=O)[C@H](Cc1c[nH]c2ccccc12)NC(=O)[C@H](C)NC(=O)[C@H](CCCCN)NC(=O)[C@@H](N)CCCCN)C(=O)N[C@@H](C)C(=O)N[C@@H](CCCCN)C(=O)N[C@@H](CCCCN)C(=O)N[C@@H](CC(C)C)C(=O)N[C@@H](CCCNC(=N)N)C(=O)N[C@@H](C)C(=O)N[C@@H](CCCCN)C(=O)NCC(=O)N[C@@H](CCCCN)C(N)=O [PS-PB-14a] (H-KKAWKSKLAKKLRAKGK-NH2): > 63.8 µM
- CC(C)[C@H](NC(=O)CNC(=O)[C@H](CCCNC(=N)N)NC(=O)[C@H](CCCNC(=N)N)NC(=O)[C@H](CS)NC(=O)[C@@H](NC(=O)[C@H](CS)NC(=O)[C@@H](N)CCCNC(=N)N)C(C)C)C(=O)N[C@@H](CS)C(=O)N[C@@H](CCCNC(=N)N)C(=O)N[C@@H](CS)C(=O)N[C@H](C(=O)N[C@@H](CS)C(=O)N[C@@H](CCCNC(=N)N)C(=O)N[C@@H](CCCNC(=N)N)C(N)=O)C(C)C [BTD15a] (H-RCVCRRGVCRCVCRR-NH2; N-terminus assumed): 4.4 µM

Hi there! I need Modal MIC for each item below, if you can.
1. CC[C@H](C)[C@H](NC(=O)[C@@H](N)Cc1c[nH]c2ccccc12)C(=O)N[C@@H](CCCCN)C(=O)N[C@@H](CO)C(=O)N[C@H](C(=O)N[C@@H](C)C(=O)N[C@@H](CCCCN)C(=O)N[C@@H](CCCCN)C(N)=O)[C@@H](C)O [Opis8a] (H-WIKSTAKK-NH2)
2. CC(C)C[C@H](NC(=O)[C@H](CCCCN)NC(=O)[C@H](CO)NC(=O)[C@H](CCCCN)NC(=O)[C@@H](N)Cc1c[nH]c2ccccc12)C(=O)N[C@@H](C)C(=O)N[C@@H](CCCCN)C(=O)N[C@@H](CCCCN)C(N)=O [PS-PB-8a] (H-WKSKLAKK-NH2)
3. CC[C@H](C)[C@H](N)C(=O)N[C@@H](CCCNC(=N)N)C(=O)NCC(=O)N[C@@H](Cc1ccc(O)cc1)C(=O)N[C@@H](CCCCN)C(=O)NCC(=O)NCC(=O)N[C@@H](Cc1ccc(O)cc1)C(=O)N[C@@H](CS)C(=O)N[C@@H](CCCCN)C(N)=O [Os(3-12)a] (H-IRGYKGGYCK-NH2)

Result:
> 133.2 µM
> 127.2 µM
> 112 µM

Lab note: measured Modal MIC of CC[C@H](C)[C@H](NC(=O)[C@H](Cc1c[nH]c2ccccc12)NC(=O)[C@H](CC(=O)O)NC(=O)[C@H](Cc1c[nH]c2ccccc12)NC(=O)[C@@H](NC(=O)[C@H](CCCCN)NC(=O)CN)C(C)C)C(=O)N[C@@H](CCCCN)C(=O)N[C@@H](CO)C(=O)N[C@H](C(=O)N[C@@H](C)C(=O)N[C@@H](CCCCN)C(=O)N[C@@H](CCCCN)C(=O)N[C@@H](CC(C)C)C(=O)N[C@@H](Cc1c[nH]c2ccccc12)C(=O)N[C@@H](CC(N)=O)C(N)=O)[C@@H](C)O [Opis16a] (H-GKVWDWIKSTAKKLWN-NH2) was 2 µM

* * *

Exercise: state measured Modal MIC90 for each of the compounds provided.
system: C. glabrata NCPF 8018; experiment: microbe, parasite or virus in culture; type: cell-based; settings: C. glabrata NCPF 8018; shown in µM
Where a SMILES comes first, the peptide text is derived from it.

- CC(C)C[C@H](NC(=O)[C@H](CCCCN)NC(=O)[C@H](CO)NC(=O)[C@H](CCCCN)NC(=O)[C@H](Cc1c[nH]c2ccccc12)NC(=O)[C@H](C)NC(=O)[C@H](CCCCN)NC(=O)[C@@H](N)CCCCN)C(=O)N[C@@H](C)C(=O)N[C@@H](CCCCN)C(=O)N[C@@H](CCCCN)C(=O)N[C@@H](CC(C)C)C(=O)N[C@@H](CCCNC(=N)N)C(=O)N[C@@H](C)C(=O)N[C@@H](CCCCN)C(=O)NCC(=O)N[C@@H](CCCCN)C(N)=O [PS-PB-14a] (H-KKAWKSKLAKKLRAKGK-NH2): > 63.8 µM
- CC(C)C[C@H](NC(=O)[C@H](CCCCN)NC(=O)[C@H](CO)NC(=O)[C@H](CCCCN)NC(=O)[C@H](Cc1c[nH]c2ccccc12)NC(=O)[C@H](C)NC(=O)[C@H](CCCCN)NC(=O)[C@H](CCCCN)NC(=O)[C@H](CC(C)C)NC(=O)[C@H](Cc1ccccc1)NC(=O)[C@H](CO)NC(=O)CN)C(=O)N[C@@H](C)C(=O)N[C@@H](CCCCN)C(=O)N[C@@H](CCCCN)C(=O)N[C@@H](CC(C)C)C(=O)N[C@@H](CCCNC(=N)N)C(=O)N[C@@H](C)C(=O)N[C@@H](CCCCN)C(=O)NCC(N)=O [PS-PB-20a] (H-GSFLKKAWKSKLAKKLRAKG-NH2): > 55.7 µM
- CC[C@H](C)[C@H](NC(=O)[C@H](Cc1c[nH]c2ccccc12)NC(=O)[C@H](CC(=O)O)NC(=O)[C@H](Cc1c[nH]c2ccccc12)NC(=O)[C@@H](NC(=O)[C@H](CCCCN)NC(=O)CN)C(C)C)C(=O)N[C@@H](CCCCN)C(=O)N[C@@H](CO)C(=O)N[C@H](C(=O)N[C@@H](C)C(=O)N[C@@H](CCCCN)C(=O)N[C@@H](CCCCN)C(=O)N[C@@H](CC(C)C)C(=O)N[C@@H](Cc1c[nH]c2ccccc12)C(=O)N[C@@H](CC(N)=O)C(N)=O)[C@@H](C)O [Opis16a] (H-GKVWDWIKSTAKKLWN-NH2): 64.7 µM

Turning now to a further record.
Lab note: measured Modal MIC90 of CC[C@H](C)[C@H](N)C(=O)N[C@@H](CC(C)C)C(=O)NCC(=O)N[C@@H](CCCCN)C(=O)N[C@H](C(=O)N[C@@H](Cc1c[nH]c2ccccc12)C(=O)N[C@@H](CCCCN)C(=O)N1CCC[C@H]1C(=O)N[C@H](C(=O)N[C@@H](CCCCN)C(=O)N[C@@H](CCCCN)C(=O)N[C@@H](CC(C)C)C(=O)N[C@@H](Cc1ccccc1)C(N)=O)[C@@H](C)CC)[C@@H](C)CC [K7P8K11-IsCTa] (H-ILGKIWKPIKKLF-NH2) was > 79 µM
